System: KB
procedure details: Cytotoxicity against human KB cells after 3 days by MTT assay
Format: functional, cell-based
test context: 72 h
parameter measured: IC50

Q: Which IC50 value belongs to C=C1c2c(C)nc(OC)c(C#N)c2N=CN1CCC ?
Result: > 50 µM

Q: What do we get for C=C1c2c(C)nc(OC)c(C#N)c2N=CN1Cc1ccc(Cl)cc1 ?
Result: 20 µM

Q: And for C=C1c2c(C)nc(OC)c(C#N)c2N=CN1Cc1ccc(OC)cc1 ?
Result: 0.67 µM

Q: What do you have for C=C1c2c(C)nc(OC)c(C#N)c2N=CN1Cc1ccc(C)cc1 ?
Result: 0.48 µM

Q: How about C=C1c2c(C)nc(OC)c(C#N)c2N=CN1CCc1ccc(Cl)cc1 ?
Result: > 50 µM

Q: What do you get for C=C1c2c(C)nc(OC)c(C#N)c2N=CN1Cc1ccco1 ?
Result: > 50 µM

Q: Same question for C=C1c2c(C)nc(OC)c(C#N)c2N=CN1Cc1ccccc1 please.
Result: > 50 µM

Q: Next up: COc1nc(C)c2c(C)ncnc2c1C#N
Result: > 50 µM

Q: Follow-up item: C=C1c2c(C)nc(OC)c(C#N)c2N=CN1CCCCCC
Result: > 50 µM

Q: Same question for C=C1c2c(C)nc(OC)c(C#N)c2N=CN1Cc1cccc(C)c1 please.
Result: 37 µM

Q: Same read-out for C=C1c2c(C)nc(OC)c(C#N)c2N=CN1CC ?
Result: > 50 µM
